assay: Rodent pharmacokinetic study; assay type: in vivo, male Wistar rats; conditions: male, Wistar, plasma; rat, intravenous (bolus), 1 mg/kg
METRIC_NAME: AUC(0-t) (ng·h/mL)
Numbers only here, please. The scale is ng·h/mL.

Give the measured AUC(0-t) for Cl.O=S(=O)(c1ccccc1)c1ccc2c(c1)OCCN2C1CCNCC1F (single isomer, unassigned; peak iii)
412

###

# key: entry, value: Kb
Biological target: recombinant human 5-HT6 receptor (Homo sapiens, UniProt P50406)
Construct: expressed in transfected cells
Sequence (P50406 whole entry): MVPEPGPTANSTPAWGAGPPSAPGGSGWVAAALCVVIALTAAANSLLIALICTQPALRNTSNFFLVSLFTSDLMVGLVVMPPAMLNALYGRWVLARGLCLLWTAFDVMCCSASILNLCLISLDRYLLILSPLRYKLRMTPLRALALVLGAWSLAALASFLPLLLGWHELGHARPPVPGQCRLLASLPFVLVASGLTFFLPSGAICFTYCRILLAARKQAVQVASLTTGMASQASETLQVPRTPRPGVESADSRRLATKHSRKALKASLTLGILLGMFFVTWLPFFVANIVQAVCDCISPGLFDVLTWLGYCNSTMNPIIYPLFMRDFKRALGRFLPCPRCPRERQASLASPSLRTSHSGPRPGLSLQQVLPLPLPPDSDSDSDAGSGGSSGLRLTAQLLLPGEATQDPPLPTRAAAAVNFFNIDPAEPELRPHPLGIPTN
Experiment: Determination of Kb for 5-HT6 receptor (CHO cells, pCRE-Luc reporter, cAMP)
Assay type: cell-based
Settings: 10 μM serotonin, luciferase reporter
Experimental: Determination of Kb for 5-HT6 Receptor: A stable CHO cell line expressing recombinant human 5-HT6 receptor and pCRE-Luc reporter system was used for cell based assay. […] In this specific assay, the level of intracellular cyclic AMP which is modulated by activation or inhibition of the receptor is measured. […] After 4 hours cells were lysed using lysis buffer and luciferase assay buffer was added to each well and counts per second were recorded using luminescence counter. […]
Numbers only here, please. The scale is nM.

Examples with answers:
- COMPOUND: "O=S(=O)(c1ccccc1)c1ccc2c(c1)OCCN2C1CCNCC1F (single isomer, unassigned; peak i) [Example 2]"
  U: "nM"
  Kb: 0.4
- COMPOUND: "O=S(=O)(c1ccccc1)c1ccc2c(c1)OCCN2C1CCNCC1F (single isomer, unassigned; peak iv) [Example 4]"
  U: "nM"
  Kb: 0.4

Give the measured Kb for O=S(=O)(c1ccccc1)c1ccc2c(c1)OCCN2C1CCNCC1 [Comparator Example, reference compound]
0.1

###

test: Non-clinical toxicology, repeated dose toxicity study in rat; type: in vivo; details: rat, in vivo; female rats, 7-Day repeat tox
METRIC_NAME: NOAEL at 7 days (mg/kg)
Numbers only here, please. The scale is mg/kg.

Give the measured NOAEL at 7 days for O=S(=O)(c1ccccc1)c1ccc2c(c1)OCCN2C1CCNCC1 [Comparator Example, reference compound]
30

###

target: recombinant human 5-HT6 receptor (Homo sapiens, UniProt P50406); construct: expressed in transfected cells; experiment: Determination of Kb for 5-HT6 receptor (CHO cells, pCRE-Luc reporter, cAMP); format: cell-based; settings: 10 μM serotonin, luciferase reporter
// assign 1 if Kb falls strictly below 1 nM, else -1 (ties count as -1)

Solved cases below.
- COMPOUND: "O=S(=O)(c1ccccc1)c1ccc2c(c1)N(C1CCNCC1F)CCO2 (single isomer, unassigned; peak iv) [Example 17]"
  CLASS_NAME: -1
- COMPOUND: "O=S(=O)(c1ccccc1)c1ccc2c(c1)OCCN2C1CCNCC1F (single isomer, unassigned; peak ii) [Example 3]"
  CLASS_NAME: 1
- COMPOUND: "O=S(=O)(c1cccc(F)c1)c1ccc2c(c1)OCCN2C1CCNCC1F (single isomer, unassigned; peak iv) [Example 8]"
  CLASS_NAME: -1

Please state whether Kb is below 1 nM for O=S(=O)(c1ccccc1)c1ccc2c(c1)N(C1CCNCC1F)CCO2 (single isomer, unassigned; peak ii) [Example 15]
-1

Please state whether Kb is below 1 nM for Cl.O=S(=O)(c1ccccc1)c1ccc2c(c1)OCCN2C1CCNCC1F (single isomer, unassigned; peak iii)
1

###

assay: Rodent pharmacokinetic study; format: in vivo, male Wistar rats; conditions: male, Wistar, plasma; rat, oral (gavage), 3 mg/kg
METRIC_NAME: Cmax (ng/mL)
Numbers only here, please. The scale is ng/mL.

Give the measured Cmax for Cl.O=S(=O)(c1ccccc1)c1ccc2c(c1)OCCN2C1CCNCC1F (single isomer, unassigned; peak iii) [Example 1]
84
